- System: BT-549
- ASSAY_EXPLANATION: NCI tumour cell line growth inhibition, 48 h
The source made the active and inactive calls. No stated cut-off is given here; in the data, active = GI50 up to about 1.1 µM and inactive = higher.
Respond with a class label; see Y = active, N = inactive

Query: recorded result category for O=C1Nc2ccccc2C(=O)O/C(Cc2ccccc2)=N\c2ccccc21 in this test N

Assay result, entry COc1cc2c(c(OC)c1OC)-c1ccc(OC)c(=O)cc1C(NC(=O)c1ccc(N=[N+]=[N-])cc1)CC2 (stereo not given) — outcome? Y

Hi team, can someone confirm the assay call for CCOC(=O)/C=C(/C(=O)OCC)n1cc(C)c(=O)n(/C(=C/C(=O)OCC)C(=O)OCC)c1=O ? N

Query: recorded result category for COc1ccc(NC2=NCCO2)c2c1CCCC2 in this test N

// param item: COc1ccc(-c2nc(O)c3ccccc3n2)c(OC)c1 ; yields the recorded call N

Recorded test outcome, item C[C@H]1C2Cc3cc(N)ccc3[C@@]1(C)CCN2CCc1ccccc1 N

Please state the recorded outcome for this molecule: Cc1cc(S(=O)(=O)NC2=Nc3cccc4cccc(c34)N2)c(S)cc1Cl N

Each molecule tested received a call. Report the one for Cc1ccc(S(=O)(=O)Nc2nc3ccccc3c(=O)n2C2CCCCC2)cc1 . N

Recorded test call requested for COC(=O)Cc1cc(O)c2c(c1O)C(=O)c1ccccc1C2=O N

# outcome recorded in this test, key = CC1=C(C(=O)OCCO[N+](=O)[O-])C(c2cccc([N+](=O)[O-])c2)C(C(=O)OC(C)C)=C(C)N1 (stereo not given) N

----------
What GI50 was measured for each of the following?
- System: RXF 393
- ASSAY_EXPLANATION: NCI tumour cell line growth inhibition, 48 h
The source made the active and inactive calls. Rule as the data show it: active = GI50 up to about 1.1 µM and inactive = higher.

// GI50 lookup, compound = COc1ccc([C@H]2c3cc4c(cc3OC(O)(CO)[C@H]2C(=O)O)OCO4)c(OC)c1.COc1ccc([C@H]2c3cc4c(cc3OC3(O)COC(=O)[C@@H]23)OCO4)c(OC)c1 (some centres undefined) , result: > 100 µM (inactive)

Measured GI50, N#C[C@H]1C(=O)C(c2nc3ccccc3[nH]2)S[C@H]1c1ccccc1 (some centres undefined) : 19.1 µM (inactive)

Entry N#C/C(=C1\N=C(c2ccccc2O)Oc2ccccc21)c1ccc([N+](=O)[O-])cc1 — recorded GI50 = > 100 µM (inactive)

The reported value for C=CCN1/C(=C2\SC(=S)N(c3ccc(C)cc3)C2=O)Sc2c1nc[nH]c2=O in terms of GI50 is 26.4 µM (inactive)

Note to self: GI50 recorded for CCOc1ccc(/N=N/C2C(=O)N(C(=O)CC(=O)Nc3ccccc3)N=C2C)cc1 (centres undefined) was > 100 µM (inactive)

Lookup result for Cc1ccnc2c1C(=O)C1=C(OC(C)(C)CC1O)C2=O (centres undefined) ; measured GI50: 10.7 µM (inactive)

The compound identified as CC(=O)NC(Cc1ccccc1)C(=S)N1CCCC1 (centres undefined) registered its GI50 at > 100 µM (inactive)

According to the records, this compound CCOC(=O)/C=C(/C(=O)OCC)n1cc(Cl)c(=O)n(CC(=O)OCC)c1=O displays GI50 of 4.57 µM (inactive)

The reported GI50 of the compound CCOC(=O)Cc1cnc(NC(NC(=O)CC)(C(F)(F)F)C(F)(F)F)s1 was > 100 µM (inactive)

----------
- Test system: MDA-MB-231
- ASSAY_EXPLANATION: NCI tumour cell line growth inhibition, 48 h
Activity calls are given as the source filed them. Rule as the data show it: active = GI50 up to about 1.1 µM and inactive = higher.
The reply should name one outcome from 1 for active, -1 for inactive

Assay outcome for CCCCOc1ccc(S(=O)(=O)N/C(=N\O)Nc2ccc(Cl)cc2)cc1 : what was it? -1

# fetch the recorded call for CC1(C)N=C(/C(Cl)=[N+](/[O-])C(=O)c2ccc(Cl)cc2)C(C)(C)N1O here -1

Outcome logged for Cc1cc(N(C)c2ccccc2)nc(N(C)c2ccccc2)n1 in this assay: -1

Kindly provide the recorded test outcome for the following compound: CC[C@@]1(O)C(=O)OCc2c1cc1n(c2=O)Cc2c-1nc1ccccc1c2/C=N/NC(=O)C[N+](C)(C)C -1

I'd appreciate the recorded outcome for CCOC(=O)[C@H]1O[C@@H]1C(=O)NC(CC(C)C)C(=O)NCCC(C)C (stereo partly drawn) from this test. -1

What was the test verdict on O=c1c(S(=O)(=O)Oc2ccccc2)coc2cc(F)ccc12 ? -1

What did this assay record as the result for O=C(NCCCN(CCCCN(CCCNC(=O)C(F)(F)F)Cc1ccc2ccccc2c1)Cc1ccc2ccccc2c1)C(F)(F)F ? -1

State the result this test recorded for CC1CC[C@@]2(OC1)OC1C[C@H]3[C@@H]4CC=C5C[C@@H](OC6OC(CO)C(OC7OC(CO)C(O)C(O)C7O)C(O)C6OC6OC(C)C(O)C(O)C6O)CC[C@]5(C)[C@H]4CC[C@]3(C)C1[C@@H]2C (stereo partly drawn) . 1

----------
- System: NCI-H460
- ASSAY_EXPLANATION: NCI tumour cell line growth inhibition, 48 h
Activity calls are given as the source filed them. No stated cut-off is given here; in the data, active = GI50 up to about 1.1 µM and inactive = higher.
Please go through the items and note down their GI50.

For CC(O)C(N/C=C1/N=C(c2ccccc2)OC1=O)C(=O)O (stereo not given) the compound record lists GI50 as > 100 µM (inactive)

compound O=C(O)C1C2C=CC(O2)C1C(=O)NCc1cccnc1 (stereo not given) , GI50 observed: > 100 µM (inactive)

The compound listed as O=C(NCC(=O)N1CCOC1=O)OCc1ccccc1 shows GI50 equal to > 100 µM (inactive)

compound CC1(C)N=C(/C(Cl)=[N+](/[O-])C(=O)c2ccc(Cl)cc2)C(C)(C)N1O , GI50 observed: 45.5 µM (inactive)

So for COc1ccc(S(=O)(=O)Nc2ccc(-c3csc(N4C(=O)/C(=C/c5cccs5)N=C4c4ccccc4)n3)cc2)cc1Cl , the logged GI50 turned out to be 41.1 µM (inactive)

Briefly, GI50 measured for CC12CCCC3(CC(=O)C(C)(C)C3C(=O)C1)C2 (stereo not given) : > 100 µM (inactive)

CCOC(=O)C(NC(=O)c1ccccc1)(Nc1ccc(S(=O)(=O)Nc2ncccn2)cc1)C(F)(F)F (stereo not given) has a reported GI50 of > 100 µM (inactive)

Note to self: GI50 recorded for Cc1nn(C(=O)c2ccncc2)c2c1C(c1ccccc1)SC(=N)N2 (stereo not given) was > 10 µM (inactive)

The value of GI50 measured for the compound COc1ccc(OC)c([N+](=O)[O-])c1-c1nc2sc(C)c(C)n2c1/C=N/N=C(N)N turned out to be 91.6 µM (inactive)

GI50 reading for O=C(CC1=Nc2nnc(CCCCCCCc3nnc4n3C(=O)C(CC(=O)c3ccccc3)=N4)n2C1=O)c1ccccc1 : > 100 µM (inactive)

----------
- Test system: T47D
- ASSAY_EXPLANATION: NCI tumour cell line growth inhibition, 48 h
The source made the active and inactive calls. Rule as the data show it: active = GI50 up to about 1.1 µM and inactive = higher.
MEASURED_PROPERTY: GI50

Per the record, O=C(O)c1cc(=O)c2c(OCC(O)COc3cccc4oc(C(=O)O)cc(=O)c34)cccc2o1 has GI50 of > 100 µM (inactive)

Looking up C[C@H]1C2Cc3cc(N)ccc3[C@@]1(C)CCN2CCc1ccccc1 , I found its GI50 recorded as 31.6 µM (inactive)

Measured GI50 of Cn1c(N(CCO)CCO)cnc1[N+](=O)[O-] : > 100 µM (inactive)

----------
- Test system: SK-MEL-28
- ASSAY_EXPLANATION: NCI tumour cell line growth inhibition, 48 h
Active and inactive are the calls of the source. Rule as the data show it: active = GI50 up to about 1.1 µM and inactive = higher.
For each of the molecules below, state its GI50.

Reported GI50 ( COCOC1CCCC[C@@]1(OCCOCCO[C@@]1(c2ccccc2)CCCC[C@H]1OCOC)c1ccccc1 (some centres not stated) ) = > 100 µM (inactive)

Sample NC(=O)c1cccc(OCC(O)CO)c1 (configuration not stated) ; GI50 observed: > 100 µM (inactive)

Field GI50 (entry CC1(C)N=C(/C(Cl)=[N+](/[O-])C(=O)c2ccc(Cl)cc2)C(C)(C)N1O ) reads 18.5 µM (inactive)

Record Cc1cccc(C)c1NC(=O)/C(CC(=O)CC(c1ccccc1)c1c(O)c2ccccc2oc1=O)=N/O (configuration not stated) , field GI50: > 100 µM (inactive)

# molecule Cn1c(C(O)C2(c3cccnc3)SCCCS2)cc2ccccc21 (configuration not stated) ; its GI50 = > 100 µM (inactive)

Notebook: CCCNC(=O)Cn1c(-c2ccccc2)cc2ccccc21 , GI50 read as 92.3 µM (inactive)

Consider O=C1Nc2ccccc2C(=O)O/C(Cc2ccccc2)=N\c2ccccc21 . Its measured GI50 is > 100 µM (inactive)

----------
Please provide measured GI50 for the entries that follow.
- System: EKVX
- ASSAY_EXPLANATION: NCI tumour cell line growth inhibition, 48 h
Activity calls are given as the source filed them. Cut-off read from the data, not from the text of the source: active = GI50 up to about 1.1 µM and inactive = higher.

The compound COc1ccc([C@H]2c3cc4c(cc3OC(O)(CO)[C@H]2C(=O)O)OCO4)c(OC)c1.COc1ccc([C@H]2c3cc4c(cc3OC3(O)COC(=O)[C@@H]23)OCO4)c(OC)c1 (some centres undefined) showed GI50 equal to > 100 µM (inactive)

Looking up Brc1ccc2c(-c3csc(-c4c[nH]c5ccccc45)n3)c[nH]c2c1 , I see its GI50 listed as 15.6 µM (inactive)

GI50 recorded for this compound, COc1ccc(/N=C2\C(=N/c3ccc(OC)cc3)N(c3ccc(N(C)C)cc3)C(=S)N2c2ccc(OC)cc2)cc1 , is > 100 µM (inactive)

Please fill in: GI50 reported for N#CC(c1ccnc(Cl)n1)c1nc2ccccc2s1 (centres undefined) = 20.2 µM (inactive)
